- system_tested: Cytochrome P450 11B2, mitochondrial (Homo sapiens)
- Sequence (P19099 whole entry): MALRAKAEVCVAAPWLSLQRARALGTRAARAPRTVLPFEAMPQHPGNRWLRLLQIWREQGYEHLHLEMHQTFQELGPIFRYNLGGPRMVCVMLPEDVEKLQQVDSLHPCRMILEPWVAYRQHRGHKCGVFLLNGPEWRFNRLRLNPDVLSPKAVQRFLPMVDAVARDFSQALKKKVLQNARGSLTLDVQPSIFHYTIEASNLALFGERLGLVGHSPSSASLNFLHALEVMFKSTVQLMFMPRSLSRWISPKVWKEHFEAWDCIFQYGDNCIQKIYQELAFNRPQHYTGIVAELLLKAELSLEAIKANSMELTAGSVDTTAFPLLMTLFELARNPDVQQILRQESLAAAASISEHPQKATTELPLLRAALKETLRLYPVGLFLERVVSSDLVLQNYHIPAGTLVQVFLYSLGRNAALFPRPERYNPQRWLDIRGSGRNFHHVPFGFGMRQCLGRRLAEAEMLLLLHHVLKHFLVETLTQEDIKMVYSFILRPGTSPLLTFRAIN
- assay_notes: Inhibition of human CYP11B2 expressed in V79 MZh cells using [1,2-3H]-11-deoxycorticosterone as substrate for 30 mins by HPTLC analysis
pIC50: −log10 of the molar value.
Assign class by pIC50: not lower than 6 means met; lower than 6 means not met.

QUERY: Item O=c1c(Cc2cccnc2)coc2ccccc12 with pIC50 of 6 or above?
RESULT: not met

QUERY: Item O=c1c(Cn2ccnc2)coc2cc(F)ccc12 with pIC50 of 6 or above?
RESULT: met

QUERY: Item COc1ccc2c(=O)c(Cc3cccnc3)coc2c1 with pIC50 of 6 or above?
RESULT: not met

QUERY: Item O=c1cc(Cn2ccnc2)oc2cc(F)ccc12 with pIC50 of 6 or above?
RESULT: met

QUERY: Item O=c1c(Cc2ccncc2)coc2cc(F)ccc12 with pIC50 of 6 or above?
RESULT: met

QUERY: Item O=c1cc(Cc2ccncc2)oc2cc(F)ccc12 with pIC50 of 6 or above?
RESULT: met

QUERY: Item O=c1cc(Cc2cccnc2)oc2ccccc12 with pIC50 of 6 or above?
RESULT: not met

QUERY: Item O=c1c(Cc2c[nH]cn2)coc2cc(F)ccc12 with pIC50 of 6 or above?
RESULT: met

QUERY: Item O=c1c(Cn2ccnc2)coc2ccccc12 with pIC50 of 6 or above?
RESULT: met

QUERY: Item O=c1cc(Cc2cccnc2)oc2cc(F)ccc12 with pIC50 of 6 or above?
RESULT: not met

QUERY: Item COc1ccc2c(=O)c(Cc3ccncc3)coc2c1 with pIC50 of 6 or above?
RESULT: not met

QUERY: Item COc1ccc2c(=O)cc(Cc3cccnc3)oc2c1 with pIC50 of 6 or above?
RESULT: not met

QUERY: Item COc1ccc2c(=O)cc(Cn3ccnc3)oc2c1 with pIC50 of 6 or above?
RESULT: not met

QUERY: Item O=c1c(Cc2c[nH]cn2)coc2ccccc12 with pIC50 of 6 or above?
RESULT: met

QUERY: Item COc1ccc2c(=O)cc(Cc3ccncc3)oc2c1 with pIC50 of 6 or above?
RESULT: not met

QUERY: Item O=c1cc(Cn2ccnc2)oc2ccccc12 with pIC50 of 6 or above?
RESULT: met

QUERY: Item O=c1c(Cc2cccnc2)coc2cc(F)ccc12 with pIC50 of 6 or above?
RESULT: not met
